measured-target: HDAC1 (Homo sapiens)
Sequence (Q13547 whole entry): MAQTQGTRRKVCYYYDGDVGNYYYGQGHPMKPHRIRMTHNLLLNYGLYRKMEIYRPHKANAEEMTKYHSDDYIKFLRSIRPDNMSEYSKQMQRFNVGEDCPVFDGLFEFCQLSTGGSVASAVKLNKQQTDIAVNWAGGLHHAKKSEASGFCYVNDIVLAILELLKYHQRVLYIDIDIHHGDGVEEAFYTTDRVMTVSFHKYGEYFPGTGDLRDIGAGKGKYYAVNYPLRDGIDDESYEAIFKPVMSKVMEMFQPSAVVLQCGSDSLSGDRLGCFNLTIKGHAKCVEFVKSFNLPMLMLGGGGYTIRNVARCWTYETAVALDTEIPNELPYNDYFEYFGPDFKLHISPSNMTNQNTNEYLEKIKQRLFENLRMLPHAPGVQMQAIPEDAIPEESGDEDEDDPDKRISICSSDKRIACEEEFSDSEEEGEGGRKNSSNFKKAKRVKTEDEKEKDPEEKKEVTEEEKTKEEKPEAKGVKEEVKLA
method-notes: HDAC1 isozyme inhibition
Format: biochemical
test-conditions: selectivity index

compound: CCOC(=O)Nc1ccc(-c2cc(C(=O)NCCc3cc(C(=O)NO)no3)no2)cc1 [Compound 8]
SI HDAC1/6: 39
//
compound: O=C(CCc1cc(C(=O)NO)no1)Nc1nc(-c2ccccc2)cs1 [Compound 2]
SI HDAC1/6: 10
//
compound: CC(C)(C)OC(=O)Nc1cccc(-c2cc(C(=O)NCc3ccc(C(=O)NO)cc3)no2)c1 [Compound 14]
SI HDAC1/6: 694
//
compound: O=C(NO)c1ccc(CNC(=O)c2cc(-c3cccc(NC(=O)C4CCCCC4)c3)on2)cc1 [Compound 16]
SI HDAC1/6: 82
//
compound: CCOC(=O)Nc1ccc(-c2csc(NC(=O)CCCc3cc(C(=O)NO)no3)n2)cc1 [Compound 4]
SI HDAC1/6: 4.1
//
compound: Nc1cccc(-c2cc(C(=O)NCCc3cc(C(=O)NO)no3)no2)c1 [Compound 9]
SI HDAC1/6: 398
//
compound: CCOC(=O)Nc1cccc(-c2csc(NC(=O)CCc3cc(C(=O)NO)no3)n2)c1 [Compound 5]
SI HDAC1/6: 80
//
compound: CC(C)(C)OC(=O)Nc1ccc(-c2cc(C(=O)NCc3ccc(C(=O)NO)cc3)no2)cc1 [Compound 13]
SI HDAC1/6: 1320
//
compound: O=C(CCCc1cc(C(=O)NO)no1)Nc1nc(-c2ccccc2)cs1 [Compound 1]
SI HDAC1/6: 4.3
//
compound: CC(C)(C)OC(=O)Nc1ccc(-c2cc(C(=O)NCCc3cc(C(=O)NO)no3)no2)cc1 [Compound 6]
SI HDAC1/6: 2817
//
compound: O=C(NO)c1ccc(CNC(=O)c2cc(Cn3c4ccccc4c4ccccc43)on2)cc1 [Compound 18]
SI HDAC1/6: 825
//
compound: O=C(NO)c1cc(Cn2c3ccccc3c3ccccc32)on1 [Compound 17]
SI HDAC1/6: 26
//
compound: O=C(Nc1cccc(-c2cc(C(=O)NCCc3cc(C(=O)NO)no3)no2)c1)c1ccccc1 [Compound 12]
SI HDAC1/6: 666
//
compound: CC(C)(C)OC(=O)Nc1ccc(-c2csc(NC(=O)CCCc3cc(C(=O)NO)no3)n2)cc1 [Compound 3]
SI HDAC1/6: 10
//
compound: O=C(NO)c1ccc(CNC(=O)c2cc(-c3ccc(NC(=O)C4CCCCC4)cc3)on2)cc1 [Compound 15]
SI HDAC1/6: 65

* * *

measured-target: UniProt Q92769
Sequence (Q92769 whole entry): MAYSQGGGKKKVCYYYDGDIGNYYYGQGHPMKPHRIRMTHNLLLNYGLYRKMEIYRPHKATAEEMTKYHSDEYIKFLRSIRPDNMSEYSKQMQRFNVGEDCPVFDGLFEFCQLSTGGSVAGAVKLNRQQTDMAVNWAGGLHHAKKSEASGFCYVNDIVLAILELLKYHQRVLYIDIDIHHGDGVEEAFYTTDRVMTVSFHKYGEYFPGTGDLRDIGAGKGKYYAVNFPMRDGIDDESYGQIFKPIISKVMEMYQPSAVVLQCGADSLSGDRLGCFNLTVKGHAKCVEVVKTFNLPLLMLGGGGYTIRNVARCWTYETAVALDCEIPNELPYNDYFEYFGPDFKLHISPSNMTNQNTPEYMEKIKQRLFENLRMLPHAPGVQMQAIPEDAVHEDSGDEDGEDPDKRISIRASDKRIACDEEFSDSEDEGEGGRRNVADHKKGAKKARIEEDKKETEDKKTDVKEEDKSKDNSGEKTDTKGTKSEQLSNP
method-notes: HDAC2 isozyme inhibition
Type: biochemical
test-conditions: read-out: HDAC Isoform, IC50, Class I, 2; singlet, 10-dose IC50 mode, 3-fold serial dilution starting at 30 μM; >50000 = no inhibition at 50 μM
pIC50: −log10 of the molar value.

smiles-entry: O=C(CCc1cc(C(=O)NO)no1)Nc1nc(-c2ccccc2)cs1
measured-target: UniProt Q92769
pIC50: 5.94
//
smiles-entry: CC(C)(C)C(=O)Nc1cccc(-c2cc(C(=O)NCCc3cc(C(=O)NO)no3)no2)c1
measured-target: UniProt Q92769
pIC50: < 4.30
//
smiles-entry: CC(C)(C)OC(=O)Nc1cccc(-c2cc(C(=O)NCCc3cc(C(=O)NO)no3)no2)c1
measured-target: UniProt Q92769
pIC50: < 4.30
//
smiles-entry: CC(C)(C)OC(=O)Nc1ccc(-c2cc(C(=O)NCCc3cc(C(=O)NO)no3)no2)cc1
measured-target: UniProt Q92769
pIC50: < 4.30
